Molecular target: MAPK14 (human) (UniProt Q16539)
Sequence (Q16539 whole entry, looked up): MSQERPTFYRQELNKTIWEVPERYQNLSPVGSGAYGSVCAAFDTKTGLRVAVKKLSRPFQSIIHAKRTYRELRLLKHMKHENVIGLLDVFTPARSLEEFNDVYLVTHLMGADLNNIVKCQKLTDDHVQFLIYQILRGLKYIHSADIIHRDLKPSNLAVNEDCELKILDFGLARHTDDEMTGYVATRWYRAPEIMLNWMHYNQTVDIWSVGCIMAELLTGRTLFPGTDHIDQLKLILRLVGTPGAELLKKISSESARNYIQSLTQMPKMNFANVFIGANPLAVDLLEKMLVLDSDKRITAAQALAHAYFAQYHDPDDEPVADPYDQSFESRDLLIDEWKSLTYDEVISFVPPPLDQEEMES
Test: In vitro Inhibition of TNF-alpha Production in PBMC Cells
ENDPOINT NAME: IC50 (nM)

[
  {
    "SMILES": "Cn1cc(-c2ccncc2)c(-c2ccc(F)cc2)c1CNC(=O)Nc1ccccc1",
    "ENDPOINT NAME": "IC50",
    "MEASURED VALUE": 27
  },
  {
    "SMILES": "CNC(=O)c1c(-c2ccc(F)cc2)c(-c2ccncc2)c(Br)n1C",
    "ENDPOINT NAME": "IC50",
    "MEASURED VALUE": 543
  },
  {
    "SMILES": "COC(=O)c1c(-c2ccc(F)cc2)c(-c2ccncc2)c(N2CCN(C(=O)OC(C)(C)C)CC2)n1C",
    "ENDPOINT NAME": "IC50",
    "MEASURED VALUE": 4260
  },
  {
    "SMILES": "CCOC(=O)c1c(-c2cc(F)cc(F)c2)c(-c2ccncc2)c(N2CCNCC2)n1C",
    "ENDPOINT NAME": "IC50",
    "MEASURED VALUE": 93
  },
  {
    "SMILES": "COC(=O)c1c(-c2ccc(F)cc2)c(-c2ccncc2)c(Nc2cccnc2)n1C",
    "ENDPOINT NAME": "IC50",
    "MEASURED VALUE": 57
  },
  {
    "SMILES": "COC(=O)c1c(-c2ccc(F)cc2)c(-c2ccncc2)c(N)n1C",
    "ENDPOINT NAME": "IC50",
    "MEASURED VALUE": 51
  }
]
